Target: UniProt:P08684
Sequence (P08684 2-503): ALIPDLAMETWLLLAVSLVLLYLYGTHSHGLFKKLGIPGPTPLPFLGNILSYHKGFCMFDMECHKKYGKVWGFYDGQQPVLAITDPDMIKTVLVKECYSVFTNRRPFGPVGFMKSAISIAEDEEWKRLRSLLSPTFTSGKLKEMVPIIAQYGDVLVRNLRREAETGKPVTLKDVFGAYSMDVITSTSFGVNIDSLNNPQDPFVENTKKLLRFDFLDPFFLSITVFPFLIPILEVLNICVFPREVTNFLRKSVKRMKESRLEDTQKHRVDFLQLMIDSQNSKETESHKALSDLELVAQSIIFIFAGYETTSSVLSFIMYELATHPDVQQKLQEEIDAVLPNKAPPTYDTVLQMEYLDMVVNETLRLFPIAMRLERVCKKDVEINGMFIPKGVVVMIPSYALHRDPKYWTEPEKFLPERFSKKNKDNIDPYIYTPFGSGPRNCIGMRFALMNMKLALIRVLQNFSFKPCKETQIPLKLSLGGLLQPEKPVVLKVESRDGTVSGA
Test: in vitro
Conditions: pH 7.4, probe testosterone 0.01 mM
assay readout: IC50 at 120 min (µM)

| compound | system under test | reported result |
| --- | --- | --- |
| COc1cc(/C=C/C(=O)CC(=O)/C=C/c2ccc(O)c(OC)c2)ccc1O [curcumin] | UniProt:P08684 | 24.3 |
| CC(C)=C1C/C=C(\C)CC/C=C(\C)CC1=O [germacrone] | UniProt:P08684 | 3.57 |

* * *

Target: CYP1A2 (Homo sapiens)
Sequence (P05177 2-516): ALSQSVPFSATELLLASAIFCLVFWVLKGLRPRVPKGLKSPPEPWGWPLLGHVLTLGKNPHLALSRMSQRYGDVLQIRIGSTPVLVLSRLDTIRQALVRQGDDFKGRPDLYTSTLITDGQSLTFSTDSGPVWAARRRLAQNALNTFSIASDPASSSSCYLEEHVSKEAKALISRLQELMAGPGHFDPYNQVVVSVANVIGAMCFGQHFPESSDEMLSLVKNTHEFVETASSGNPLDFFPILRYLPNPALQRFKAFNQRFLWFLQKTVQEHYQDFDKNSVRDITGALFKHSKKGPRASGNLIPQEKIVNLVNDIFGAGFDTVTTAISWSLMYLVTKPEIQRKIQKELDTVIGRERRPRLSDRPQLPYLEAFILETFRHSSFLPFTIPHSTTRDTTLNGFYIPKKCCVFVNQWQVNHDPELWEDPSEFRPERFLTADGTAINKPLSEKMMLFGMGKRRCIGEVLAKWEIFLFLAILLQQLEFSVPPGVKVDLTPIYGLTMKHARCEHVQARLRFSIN
Assay: Inhibition of CYP1A2 activity in vitro (probe phenacetin)
Format: in vitro ADME
Conditions: compound 0-80 μM; probe phenacetin 0.02 mM
assay readout: IC50

| mol smiles | system under test | reported result |
| --- | --- | --- |
| COc1cc(/C=C/C(=O)CC(=O)/C=C/c2ccc(O)c(OC)c2)ccc1O | CYP1A2 (Homo sapiens) | > 80 µM |
| CC(C)=C1C/C=C(\C)CC/C=C(\C)CC1=O | CYP1A2 (Homo sapiens) | 78.1 µM |

* * *

Target: CYP2C19 (Homo sapiens)
Sequence (P33261 whole entry): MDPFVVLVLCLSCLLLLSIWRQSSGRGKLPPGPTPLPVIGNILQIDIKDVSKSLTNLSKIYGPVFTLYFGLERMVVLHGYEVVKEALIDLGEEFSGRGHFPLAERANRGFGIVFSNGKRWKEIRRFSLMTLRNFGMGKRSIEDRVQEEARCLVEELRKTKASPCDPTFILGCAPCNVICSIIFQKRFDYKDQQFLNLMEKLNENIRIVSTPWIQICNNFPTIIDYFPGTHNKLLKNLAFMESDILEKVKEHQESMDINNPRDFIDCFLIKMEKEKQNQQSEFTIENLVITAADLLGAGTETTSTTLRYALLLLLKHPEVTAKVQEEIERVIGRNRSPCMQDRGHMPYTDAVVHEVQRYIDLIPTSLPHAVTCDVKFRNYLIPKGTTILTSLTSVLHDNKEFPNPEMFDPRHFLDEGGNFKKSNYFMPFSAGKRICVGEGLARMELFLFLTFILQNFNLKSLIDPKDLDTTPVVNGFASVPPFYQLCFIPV
Test: in vitro
Settings: recombinant enzyme, pH 7.4
Below is a list of entries, each paired with its recorded half-life at 5 μM value.

| compound | half-life at 5 μM [h] |
| --- | --- |
| CC(C)=C1C/C=C(\C)CC/C=C(\C)CC1=O [germacrone] | 0.963 |
| COc1cc(/C=C/C(=O)CC(=O)/C=C/c2ccc(O)c(OC)c2)ccc1O [curcumin] | 1.05 |

* * *

Entries and their measured Km at 15 min follow.
Experiment: in vitro
Conditions: Sprague-Dawley, rat, pH 7.4
assay readout: Km at 15 min

| mol smiles | assay readout | reported result |
| --- | --- | --- |
| CC(C)=C1C/C=C(\C)CC/C=C(\C)CC1=O | Km at 15 min | 49.6 µM |
| COc1cc(/C=C/C(=O)CC(=O)/C=C/c2ccc(O)c(OC)c2)ccc1O | Km at 15 min | 48.5 µM |

* * *

pIC50: −log10 of the molar value.
Dear all, this message contains pIC50 results, target or system CYP2E1 (Homo sapiens, UniProt P05181).

| mol smiles | pIC50 |
| --- | --- |
| COc1cc(/C=C/C(=O)CC(=O)/C=C/c2ccc(O)c(OC)c2)ccc1O | < 4.10 |
| CC(C)=C1C/C=C(\C)CC/C=C(\C)CC1=O | < 4.10 |

* * *

Below, each entry is listed alongside its reported half-life.
Assay: in vitro
Details: human, microsomes, pH 7.4

| mol smiles | half-life (h) |
| --- | --- |
| COc1cc(/C=C/C(=O)CC(=O)/C=C/c2ccc(O)c(OC)c2)ccc1O | 2.89 |
| CC(C)=C1C/C=C(\C)CC/C=C(\C)CC1=O | 0.273 |

* * *

Test: in vitro
Details: human

| compound | quantity unit | Km at 15 min |
| --- | --- | --- |
| CC(C)=C1C/C=C(\C)CC/C=C(\C)CC1=O [germacrone] | µM | 44.8 |
| COc1cc(/C=C/C(=O)CC(=O)/C=C/c2ccc(O)c(OC)c2)ccc1O [curcumin] | µM | 16.6 |

* * *

half-life at 5 μM values for the compounds below.
Target: CYP2E1 (Homo sapiens)
Sequence (P05181 whole entry): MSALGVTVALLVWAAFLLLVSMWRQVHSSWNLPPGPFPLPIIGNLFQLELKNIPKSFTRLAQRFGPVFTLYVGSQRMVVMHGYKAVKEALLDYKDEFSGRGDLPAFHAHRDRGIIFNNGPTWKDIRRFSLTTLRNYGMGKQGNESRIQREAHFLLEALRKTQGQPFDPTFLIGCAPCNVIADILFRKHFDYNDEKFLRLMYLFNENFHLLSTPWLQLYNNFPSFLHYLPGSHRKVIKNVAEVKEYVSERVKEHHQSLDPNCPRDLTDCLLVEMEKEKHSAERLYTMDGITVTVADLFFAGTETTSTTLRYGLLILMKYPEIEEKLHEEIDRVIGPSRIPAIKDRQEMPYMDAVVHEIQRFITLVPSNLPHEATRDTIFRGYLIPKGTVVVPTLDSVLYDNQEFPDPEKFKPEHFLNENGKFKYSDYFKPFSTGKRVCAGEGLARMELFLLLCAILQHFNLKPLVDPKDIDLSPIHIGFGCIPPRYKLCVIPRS
Test: in vitro
Conditions: recombinant enzyme, pH 7.4
assay readout: half-life at 5 μM (h)

| mol smiles | quantity unit | reported result |
| --- | --- | --- |
| CC(C)=C1C/C=C(\C)CC/C=C(\C)CC1=O | h | 1.16 |
| COc1cc(/C=C/C(=O)CC(=O)/C=C/c2ccc(O)c(OC)c2)ccc1O | h | 1.16 |
